Target: T1, Human CD137 ECD (human)
T1 construct: entry includes C-terminal His-tag and biotin acceptor peptide; also called human CD137 extracellular domain; 4-1BB
T1 sequence (chain, as listed by the source limits assumed): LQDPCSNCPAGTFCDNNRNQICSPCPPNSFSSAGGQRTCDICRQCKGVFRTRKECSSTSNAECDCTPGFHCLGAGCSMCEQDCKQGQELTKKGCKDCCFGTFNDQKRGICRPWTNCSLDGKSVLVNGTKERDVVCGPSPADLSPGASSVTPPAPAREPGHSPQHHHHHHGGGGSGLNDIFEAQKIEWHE
Test: Biacore SPR, vs parent H183/L072
Below, each entry is listed with its recorded fold change of affinity.
The reply should contain only the number, in fold.

- BINDER: "H183/L072 VL F55D (antibody, name in Kabat numbering, V domains shown, Dual-Ig) VH: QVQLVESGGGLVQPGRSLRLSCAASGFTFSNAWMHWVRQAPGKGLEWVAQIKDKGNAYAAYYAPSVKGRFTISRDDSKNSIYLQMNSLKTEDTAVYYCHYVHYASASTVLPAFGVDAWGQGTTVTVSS VL: DIVMTQSPLSLPVTPGEPASISCQASQELVHMNRNTYLHWYQQKPGQAPRLLIYKVSNRDPGVPDRFSGSGSGTDFTLKISRVEAEDVGVYYCAQGTSVPFTFGQGTKLEIK"
  ENDPOINT_UNIT: "fold"
  REPORTED: 0

API: the following record is the query input.
Query (binder): H183/L072 VL Q90F (antibody, name in Kabat numbering, V domains shown, Dual-Ig) VH: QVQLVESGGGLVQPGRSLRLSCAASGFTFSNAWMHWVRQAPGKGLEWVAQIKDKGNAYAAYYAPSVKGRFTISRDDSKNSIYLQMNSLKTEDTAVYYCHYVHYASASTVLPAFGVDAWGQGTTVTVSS VL: DIVMTQSPLSLPVTPGEPASISCQASQELVHMNRNTYLHWYQQKPGQAPRLLIYKVSNRFPGVPDRFSGSGSGTDFTLKISRVEAEDVGVYYCAFGTSVPFTFGQGTKLEIK ; field requested: fold change of affinity 0
